- measurementNotes: Selectivity index, ratio of ED50 for human KB cells to ED50 for chloroquine-resistant Plasmodium falciparum W2
- Type: toxicity, cell-based
- recordedConditions: read-out: Ratio ED50
The label depends only on selectivity ratio: Met if it is at least 50, Not met if it is smaller.

* COc1ccc2cc1Oc1ccc(cc1)C[C@H]1c3c(cc(OC)c(OC)c3Oc3cc4c(cc3OC)CCN[C@@H]4C2)CCN1C | Met
* COc1ccc2cc1Oc1ccc(cc1)C[C@H]1c3c(cc(OC)c(O)c3Oc3cc4c(cc3OC)CCN(C)[C@@H]4C2)CCN1C | Not met
* COc1ccc2cc1Oc1ccc(cc1)C[C@H]1c3c(cc(OC)c(O)c3Oc3cc4c(cc3OC)CCN[C@@H]4C2)CCN1C | Not met
* COc1ccc2cc1Oc1ccc(cc1)C[C@H]1c3c(cc(OC)c4c3Oc3cc5c(cc3O4)CCN=C5C2)CCN1C | Not met
* COc1ccc2cc1Oc1ccc(cc1)C[C@H]1c3c(cc(OC)c(OC)c3Oc3cc4c(cc3OC)CCN(C)[C@@H]4C2)CCN1C | Not met
* COc1ccc2cc1Oc1ccc(cc1)C[C@H]1c3cc(c(OC)cc3CCN1C)Oc1c(OC)c(OC)cc3c1[C@@H](C2)NCC3 | Met
* COc1ccc2cc1Oc1ccc(cc1)C[C@H]1c3c(cc4c(c3Oc3cc5c(cc3OC)CCN[C@@H]5C2)OCO4)CCN1C | Not met
* COc1ccc2cc1Oc1ccc(cc1)C[C@H]1c3cc(c(OC)cc3CCN1C)Oc1c(O)c(OC)cc3c1[C@@H](C2)N(C)CC3 | Not met
* C=C[C@H]1CN2CC[C@H]1C[C@H]2[C@H](O)c1ccnc2ccc(OC)cc12 | Met
* COc1ccc2cc1Oc1ccc(cc1)C[C@H]1c3c(cc(OC)c4c3Oc3cc5c(cc3O4)CCN(C)[C@@H]5C2)CCN1C | Not met
* COc1ccc2cc1Oc1ccc(cc1)C[C@H]1c3cc(c(OC)cc3CCN1C)Oc1c(OC)c(OC)cc3c1[C@@H](C2)N(C)CC3 | Met
* COc1ccc2cc1Oc1ccc(cc1)C[C@H]1c3c(cc4c(c3Oc3cc5c(cc3OC)CCN(C)[C@@H]5C2)OCO4)CCN1C | Not met

---

- measurementNotes: Cytotoxicity against human KB cells after 3 days by sulforhodamine B assay
- Assay type: cell-based
- recordedConditions: read-out: ED50
// classify: if (CC50 at 72 h < 6 µg/mL) YES else NO

• COc1ccc2cc1Oc1ccc(cc1)C[C@H]1c3c(cc(O)c(OC)c3Oc3cc4c(cc3OC)CCN(C)[C@@H]4C2)CCN1C = NO
• COc1ccc2cc1Oc1ccc(cc1)C[C@H]1c3c(cc(OC)c(O)c3Oc3cc4c(cc3OC)CCN(C)[C@@H]4C2)CCN1C [HOMOAROMOLINE] = NO
• COc1ccc2cc1Oc1ccc(cc1)C[C@H]1c3cc(c(OC)cc3CCN1C)Oc1c(OC)c(OC)cc3c1[C@@H](C2)N(C)CC3 = NO
• OC(c1cc(C(F)(F)F)nc2c(C(F)(F)F)cccc12)C1CCCCN1 (centres undefined) [MEFLOQUINE] = YES
• COc1ccc2cc1Oc1ccc(cc1)C[C@H]1c3cc(c(OC)cc3CCN1C)Oc1c(O)c(OC)cc3c1[C@@H](C2)NCC3 = NO
• COc1ccc2cc1Oc1ccc(cc1)C[C@H]1c3c(cc(OC)c(OC)c3Oc3cc4c(cc3OC)CCN(C)[C@@H]4C2)CCN1C [OBABERINE] = NO
• COc1ccc2cc1Oc1ccc(cc1)C[C@H]1c3c(cc(OC)c4c3Oc3cc5c(cc3O4)CCN(C)[C@@H]5C2)CCN1C = YES
